# Method: Single intravenous dose acute toxicity
# Type: in vivo, mice
# Run Parameters: ICR, mouse, in vivo; male mice, single intravenous administration; read-out: median lethal dose (LD50)

[
  {
    "Compound": "CC(=O)NC1C(OC2C(C)OC(OC3C=CC=CC=CC=CC=CC=CC=CC(C)C(O)C(C)C(C)OC(=O)CC(O)CC(O)CC(O)CCC(O)C(O)CC4(O)CC(O)C(C(=O)O)C(C3)O4)C(O)C2N)OC(CO)C(O)C1O (centres unmarked)",
    "LD50 at 7 days": "2.95 mg/kg"
  },
  {
    "Compound": "C[C@@H]1[C@H](O)[C@@H](C)/C=C/C=C/C=C/C=C/C=C/C=C/C=C/[C@H](O[C@@H]2O[C@H](C)[C@@H](O)[C@H](N)[C@@H]2O)C[C@@H]2O[C@](O)(C[C@@H](O)C[C@@H](O)[C@H](O)CC[C@@H](O)C[C@@H](O)CC(=O)O[C@H]1C)C[C@H](O)[C@H]2C(=O)O",
    "LD50 at 7 days": "2.95 mg/kg"
  }
]

###

# Method: in vivo
# Run Parameters: mouse, 1 mg/kg, read-out: t1/2 (converted)
Endpoint: half-life (h)

[
  {
    "Molecule": "CC(=O)NC1C(OC2C(C)OC(OC3C=CC=CC=CC=CCCC=CC=CC(C)C(O)C(C)C(C)OC(=O)CC(O)CC(O)CC(O)CCC(O)C(O)CC4(O)CC(O)C(C(=O)O)C(C3)O4)C(O)C2N)OC(CO)C(O)C1O (stereo not shown) [NPP A1]",
    "Value Unit": "h",
    "Measured": 1
  }
]

###

# Method: Microsomal (metabolic) stability
# Type: in vitro ADME
# Run Parameters: pH 7.4; human liver microsomes 1.0 mg/ml
Endpoint: microsomal CLint at 1 µM

[
  {
    "Compound": "CC(=O)NC1C(OC2C(C)OC(OC3C=CC=CC=CC=CC=CC=CC=CC(C)C(O)C(C)C(C)OC(=O)CC(O)CC(O)CC(O)CCC(O)C(O)CC4(O)CC(O)C(C(=O)O)C(C3)O4)C(O)C2N)OC(CO)C(O)C1O (stereo not shown)",
    "Measured": "19000 µL/min/mg"
  },
  {
    "Compound": "C[C@@H]1[C@H](O)[C@@H](C)/C=C/C=C/CC/C=C/C=C/C=C/C=C/[C@H](O[C@@H]2O[C@H](C)[C@@H](O)[C@H](N)[C@@H]2O)C[C@@H]2O[C@](O)(C[C@@H](O)[C@H](O)CC[C@@H](O)C[C@@H](O)C[C@@H](O)CC(=O)O[C@H]1C)C[C@H](O)[C@H]2C(=O)O",
    "Measured": "< 8600 µL/min/mg"
  },
  {
    "Compound": "C[C@@H]1[C@H](O)[C@@H](C)/C=C/C=C/C=C/C=C/C=C/C=C/C=C/[C@H](O[C@@H]2O[C@H](C)[C@@H](O)[C@H](N)[C@@H]2O)C[C@@H]2O[C@](O)(C[C@@H](O)C[C@@H](O)[C@H](O)CC[C@@H](O)C[C@@H](O)CC(=O)O[C@H]1C)C[C@H](O)[C@H]2C(=O)O",
    "Measured": "< 8600 µL/min/mg"
  },
  {
    "Compound": "CC(=O)NC1C(OC2C(C)OC(OC3C=CC=CC=CC=CCCC=CC=CC(C)C(O)C(C)C(C)OC(=O)CC(O)CC(O)CC(O)CCC(O)C(O)CC4(O)CC(O)C(C(=O)O)C(C3)O4)C(O)C2N)OC(CO)C(O)C1O (stereo not shown)",
    "Measured": "< 8600 µL/min/mg"
  }
]
